# TESTED ON: Farnesyltransferase (FTase) (Bos taurus, UniProt P29702+P49355)
# Construct: precipitation from a beef brain homogenate; from tissue; host or cells: bovine brain
# ASSAY NOTES: Farnesyltransferase inhibition (scintillation proximity assay, [3H]-FPP / biotin-K-ras peptide)
# Type: biochemical, bovine
# MEASUREMENT PARAMETERS: compound at 10^−6 M; bovine FTase, 37° C., 30 minutes
Where a name gives a salt, the structure may show the parent alone.

COMPOUND: Cn1cncc1C(OCc1ccc(C(F)(F)F)cc1)c1ccc(C#N)c(-c2cccc3ccccc23)c1 (stereo not shown) [Example 65, hydrochloride]
UNIT ABBREVIATION: %
inhibition at 1 µM: 100

COMPOUND: Cn1cncc1CN(c1ccc(C#N)c(-c2cccc3ccccc23)c1)S(=O)(=O)c1ccccc1
UNIT ABBREVIATION: %
inhibition at 1 µM: 100

COMPOUND: CCOCn1cncc1C(OCc1ccccc1)c1ccc(C#N)c(-c2cccc3ccccc23)c1 (stereo not shown) [Example 105, hydrochloride]
UNIT ABBREVIATION: %
inhibition at 1 µM: 82

COMPOUND: Cn1cncc1C(OCc1ccc(C#N)cc1)c1ccc(F)c(-c2cccc3ccccc23)c1 (stereo not shown)
UNIT ABBREVIATION: %
inhibition at 1 µM: 100

COMPOUND: Cc1ccccc1-c1cc(C(OCc2csc(-c3ccc(Cl)cc3)n2)c2cncn2C)ccc1C#N (stereo not shown) [Example 162, hydrochloride]
UNIT ABBREVIATION: %
inhibition at 1 µM: 94

COMPOUND: CN(Cc1cncn1C)c1ccc(C#N)c(-c2cccc3ccccc23)c1
UNIT ABBREVIATION: %
inhibition at 1 µM: 100

COMPOUND: Cn1cncc1C(OCc1ccc(C(=O)O)cn1)c1ccc(C#N)c(-c2cccc3cccnc23)c1 (stereo not shown) [Example 245, trihydrochloride]
UNIT ABBREVIATION: %
inhibition at 1 µM: 90

---

# TESTED ON: Farnesyltransferase (FTase) (Bos taurus, UniProt P29702+P49355)
# Construct: precipitation from a beef brain homogenate; from tissue; host or cells: bovine brain
# ASSAY NOTES: Farnesyltransferase inhibition (scintillation proximity assay, [3H]-FPP / biotin-K-ras peptide)
# Assay type: biochemical, bovine
# MEASUREMENT PARAMETERS: compound at 10^−6 M; bovine FTase, 37° C., 30 minutes
# Excerpt: Farnesyltransferase (FTase) or geranylgeranyltransferase I (GGTase I) fractions were isolated from bovine brains and purified by a series of methods which separate FTase from GGTase I and GGTase I from GGTase II. The methods involved a partial purification of all three enzymes by precipitation from a beef brain homogenate with 30% to 50% saturated […] followed by chromatography on DEAE Sepharose. […]
Where a name gives a salt, the structure may show the parent alone.
In this section, each of the compounds is paired with its reported inhibition at 1 µM.

COMPOUND: Cn1cncc1CN(Cc1ccc(C(=O)O)cc1)Cc1ccc(C#N)c(-c2cccc3ccccc23)c1 [Example 193, dihydrochloride]
TESTED ON: Farnesyltransferase (FTase) (Bos taurus, UniProt P29702+P49355)
inhibition at 1 µM [%]: 91
//
COMPOUND: Cn1cncc1C(OCc1ccc(N=[N+]=[N-])cc1)c1ccc(C#N)c(-c2cccc3ccccc23)c1 (stereo not shown) [Example 276, hydrochloride]
TESTED ON: Farnesyltransferase (FTase) (Bos taurus, UniProt P29702+P49355)
inhibition at 1 µM [%]: 100
//
COMPOUND: Cn1cncc1C(OCc1ccc(C#N)cn1)c1ccc(C#N)c(-c2cccc(Cl)c2Cl)c1 (stereo not shown) [Example 280, dihydrochloride]
TESTED ON: Farnesyltransferase (FTase) (Bos taurus, UniProt P29702+P49355)
inhibition at 1 µM [%]: 98
//
COMPOUND: Cn1cncc1C(NCc1ccc(Cl)c(Cl)c1)c1ccc(C#N)c(-c2cccc3ccccc23)c1 (stereo not shown)
TESTED ON: Farnesyltransferase (FTase) (Bos taurus, UniProt P29702+P49355)
inhibition at 1 µM [%]: 100
//
COMPOUND: Cc1ccccc1-c1cc(C(OCc2ccccc2)c2cnnn2C)ccc1C#N (stereo not shown) [Example 81, hydrochloride]
TESTED ON: Farnesyltransferase (FTase) (Bos taurus, UniProt P29702+P49355)
inhibition at 1 µM [%]: 14
//
COMPOUND: Cc1ccccc1-c1cc(N(Cc2cncn2C)C(=O)c2ccccc2)ccc1C#N
TESTED ON: Farnesyltransferase (FTase) (Bos taurus, UniProt P29702+P49355)
inhibition at 1 µM [%]: 93
//
COMPOUND: Cc1ccccc1-c1cc(C(OCc2cc(F)ccc2F)c2cncn2C)ccc1C#N (stereo not shown) [Example 129, hydrochloride]
TESTED ON: Farnesyltransferase (FTase) (Bos taurus, UniProt P29702+P49355)
inhibition at 1 µM [%]: 93
